- assayed_target: mTOR/GbL/Raptor (mTORC1) (Homo sapiens, UniProt P42345)
- assay_method_text: mTOR/GbL/Raptor (mTORC1) ELISA assay, phosphorylation of 4E-BP1
- Assay type: biochemical
- assay_conditions: 0.2 nM mTORC1, 10 μM ATP, 50 nM NHis-tagged 4E-BP1; read-out: Activity in mTOR/GbL/Raptor ELISA Assay
pIC50: −log10 of the molar value.
parameter_measured: pIC50

Example cases with answers are listed next.
[[record]]
smiles_entry = "CC(C)NS(=O)(=O)c1ccc(C(=O)N2CCOc3ccc(-c4ccc5nc[nH]c5c4)cc3C2)c(Br)c1"
numeric_result = 8.25

[[record]]
smiles_entry = "COc1ccc(OC)c(S(=O)(=O)c2ccc(C(=O)N3CCOc4ccc(-c5ccc6nc(C)[nH]c6c5)cc4C3)cc2)c1"
numeric_result = 8.49

[[record]]
smiles_entry = "Cc1nc2ccc(-c3ccc4c(c3)CN(C(=O)c3cc5nc(C)sc5n3C)CCO4)cc2[nH]1"
numeric_result = 7.76


a. CCc1c(C(=O)N2CCOc3ccc(-c4ccc(NC(=O)N(C)C)cc4)cc3C2)ccc(S(C)(=O)=O)c1F
b. O=C(c1ccc(C(O)(O)C(F)(F)F)cc1)N1CCOc2ccc(-c3ccc(-c4ncc[nH]4)cc3)cc2C1
Short answer wanted: higher pIC50, a or b ? Output the label that corresponds to your choice.
b

====

- assayed_target: mTOR/GbL/Raptor (mTORC1) (Homo sapiens, UniProt P42345)
- assay_method_text: mTOR/GbL/Raptor (mTORC1) ELISA assay, phosphorylation of 4E-BP1
- Assay type: biochemical
- assay_conditions: 0.2 nM mTORC1, 10 μM ATP, 50 nM NHis-tagged 4E-BP1; read-out: Activity in mTOR/GbL/Raptor ELISA Assay
parameter_measured: IC50 (nM)

[[record]]
smiles_entry = "Cc1nc2ccc(-c3ccc4c(c3)CN(C(=O)c3cc(S(=O)(=O)N5CCCC5)cn3C)CCO4)cc2[nH]1"
units_symbol = "nM"
numeric_result = 7.1

[[record]]
smiles_entry = "Cc1nc2ccc(-c3ccc4c(c3)CN(C(=O)c3ccc5c(c3)CCS5(=O)=O)CCO4)cc2[nH]1"
units_symbol = "nM"
numeric_result = 4.8

[[record]]
smiles_entry = "CCc1c(C(=O)N2CCOc3ccc(-c4cnc(NCCNC)s4)cc3C2)ccc(S(C)(=O)=O)c1F"
units_symbol = "nM"
numeric_result = 5.3


P. CCc1c(C(=O)N2CCOc3ccc(-c4ccc(-c5nc6ccc(C)cc6[nH]5)cc4)cc3C2)ccc(S(C)(=O)=O)c1F
Q. CCn1c(C(=O)N2CCOc3ccc(-c4ccc5nc(C)[nH]c5c4)cc3C2)c(Cl)c2ccccc21
Would you let me know which has the greater IC50 value, P or Q ? // return label of chosen record
Q

I. CCc1c(C(=O)N2CCOc3ccc(-c4ccc(C(=O)NCC5CNC5)cc4)cc3C2)ccc(S(C)(=O)=O)c1F
II. Nc1ccc(-c2ccc3c(c2)CN(C(=O)c2ccc(S(N)(=O)=O)cc2)CCO3)cn1
Of I and II , which shows the smaller IC50 value? Answer by quoting the chosen item's label.
II

====

- assayed_target: mTOR/GbL/Raptor (mTORC1) (Homo sapiens, UniProt P42345)
- assay_method_text: mTOR/GbL/Raptor (mTORC1) ELISA assay, phosphorylation of 4E-BP1
- Type: biochemical
- assay_conditions: 0.2 nM mTORC1, 10 μM ATP, 50 nM NHis-tagged 4E-BP1; read-out: activity in mTOR/GbL/Raptor (mTORC1) ELISA assay, activity bands by Table 1 compound number
parameter_measured: IC50

Record excerpt, results attached:
[[record]]
smiles_entry = "CS(=O)(=O)c1ccc(C(=O)N2CCOc3ccc(-c4ccc(N)nc4)cc3C2)cc1"
assayed_target = "mTOR/GbL/Raptor (mTORC1) (Homo sapiens, UniProt P42345)"
result = "0.01 to 0.1 µM"

[[record]]
smiles_entry = "O=C(c1ccc(C(=O)C(F)(F)F)cc1)N1CCOc2ccc(-c3cccnc3)cc2C1"
assayed_target = "mTOR/GbL/Raptor (mTORC1) (Homo sapiens, UniProt P42345)"
result = "0.01 to 0.1 µM"


Which IC50 value is on record for `COc1ccc(-c2ccc3c(c2)CN(C(=O)c2ccc(S(C)(=O)=O)cc2)CCO3)cn1` ?
0.1 to 0.5 µM

Continue with `COc1ccc(-c2ccc3c(c2)CN(C(=O)c2ccc(S(N)(=O)=O)cc2)CCO3)cn1`
0.01 to 0.1 µM

Also check `CCS(=O)(=O)c1ccc(C(=O)N2CCOc3ccc(-c4ccc(N)nc4)cc3C2)c(C)c1F`
≤ 0.01 µM

Repeat for the following compound: `COc1ccc(-c2ccc3c(c2)CN(C(=O)c2ccc(C(=O)C(F)(F)F)cc2)CCO3)cn1`
0.01 to 0.1 µM
